target.system: h-jak3(810-1124) (JAK3 recombinant human kinase domain) (Homo sapiens, UniProt P52333)
Construct: Ic50 h-jak3(810-1124)-
Sequence (P52333 810-1124): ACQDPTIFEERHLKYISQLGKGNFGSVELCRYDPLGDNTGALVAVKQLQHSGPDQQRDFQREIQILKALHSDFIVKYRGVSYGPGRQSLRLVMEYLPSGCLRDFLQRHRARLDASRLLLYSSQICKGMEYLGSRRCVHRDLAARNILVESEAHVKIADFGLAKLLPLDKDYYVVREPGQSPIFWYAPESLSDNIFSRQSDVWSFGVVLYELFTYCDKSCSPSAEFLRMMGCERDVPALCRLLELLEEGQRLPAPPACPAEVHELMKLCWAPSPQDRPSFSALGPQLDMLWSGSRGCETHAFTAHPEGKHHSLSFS
procedure.summary: Determination of IC50 of Janus Kinase (JAK) inhibition, radioactive end-point 33P-ATP kinase assay, JAK3
setup.conditions: JAK3 kinase domain (810-1124), sf9; no additive; ATP 1.5 uM, peptide 50 uM, 20 minutes, room temperature; read-out: Ic50 h-jak3(810-1124)-sf9-c: no additive
Method: Determination of IC50 of Janus Kinase (JAK) Inhibition: […] Assay conditions used are described below: • Assay Buffer: JAK Kinase Buffer: 50 mM Hepes [pH 7.2], 10 mM MgCl2, 1 mM DTT, 1 mg/ml BSA. The assay was carried out in this buffer. • Assay Format The kinase activity of all three JAK kinases was measured using a radioactive, end-point assay and with trace amounts of ^33P-ATP. […]
pIC50: −log10 of the molar value.
measured.parameter: pIC50

INSERT INTO measurements (molecule, recorded_number) VALUES
  ('CN1CCC[C@@H](NC(=O)c2c[nH]c3ncc(C4CC4)nc23)C1=O [Compound I-12]', 6.75),
  ('N#CCCN1CCC[C@@H](NC(=O)c2c[nH]c3ncc(C4CC4)nc23)C1=O [Compound I-13]', 6.86),
  ('CC(CC(=O)NC1CC1)NC(=O)c1c[nH]c2ncc(C3CC3)nc12 (stereo not shown) [Compound I-5]', 6.01),
  ('C[C@@H](NC(=O)c1c[nH]c2ncc(C3CC3)nc12)C(=O)N(C)CC#N [Compound I-8]', 7.40),
  ('C[C@@H](NC(=O)c1c[nH]c2ncc(C3CC3)nc12)C(=O)N(C)C [Compound I-6]', 6.95);

(P) CC(CC(=O)NCC(F)(F)F)NC(=O)c1c[nH]c2ncc(C3CC3)nc12 (stereo not shown) [Compound I-2]
(Q) C[C@H](NC(=O)c1c[nH]c2ncc(C3CC3)nc12)C(=O)N(C)C [Compound I-9]
Ask | Which has the higher pIC50, P or Q ? Respond with the label that goes with your answer.
Reply | P

(I) CCCNC(=O)CC(C)NC(=O)c1c[nH]c2ncc(C3CC3)nc12 (stereo not shown) [Compound I-4]
(II) O=C(N[C@@H]1CCCNC1=O)c1c[nH]c2ncc(C3CC3)nc12 [Compound I-11]
Ask | Kindly identify the item with the lower pIC50 figure among these two: I and II Respond with the label that goes with your answer.
Reply | I

(A) NC(=O)CNC(=O)c1c[nH]c2ncc(C3CC3)nc12 [Compound I-1]
(B) CC(C)(C(N)=O)C(NC(=O)c1c[nH]c2ncc(C3CC3)nc12)C1CC1 (stereo not shown) [Compound I-7]
(C) CCNC(=O)CC(C)NC(=O)c1c[nH]c2ncc(C3CC3)nc12 (stereo not shown) [Compound I-3]
Ask | Write the entries in order, lowest recorded pIC50 first. Please list the labels according to the requested order.
Reply | C, A, B

###

measured.parameter: melting point

Consider the reported melting point for these compounds:
INSERT INTO measurements (compound, measured_parameter, result) VALUES
  ('NC(=O)CNC(=O)c1c[nH]c2ncc(C3CC3)nc12', 'melting point', '215 to 220 °C'),
  ('CC(CC(=O)NC1CC1)NC(=O)c1c[nH]c2ncc(C3CC3)nc12 (stereo not drawn)', 'melting point', '236 to 238 °C'),
  ('CCCNC(=O)CC(C)NC(=O)c1c[nH]c2ncc(C3CC3)nc12 (stereo not drawn)', 'melting point', '198 to 200 °C');

Ask | Name the recorded melting point for CC(CC(=O)NCC(F)(F)F)NC(=O)c1c[nH]c2ncc(C3CC3)nc12 (stereo not drawn) .
Reply | 230 to 232 °C

Ask | Name the recorded melting point for CCNC(=O)CC(C)NC(=O)c1c[nH]c2ncc(C3CC3)nc12 (stereo not drawn) .
Reply | 182 to 184 °C

Ask | Name the recorded melting point for CC(C)(C(N)=O)C(NC(=O)c1c[nH]c2ncc(C3CC3)nc12)C1CC1 (stereo not drawn) .
Reply | 222 to 224 °C

Where do these numbers come from? They come from patent US8481541B2.
